# measuredTarget: hM2 receptor (Homo sapiens, UniProt P08172)
# Construct: expressed in transfected cells; host or cells: CHO-K1 cells
# Sequence (P08172 1-466): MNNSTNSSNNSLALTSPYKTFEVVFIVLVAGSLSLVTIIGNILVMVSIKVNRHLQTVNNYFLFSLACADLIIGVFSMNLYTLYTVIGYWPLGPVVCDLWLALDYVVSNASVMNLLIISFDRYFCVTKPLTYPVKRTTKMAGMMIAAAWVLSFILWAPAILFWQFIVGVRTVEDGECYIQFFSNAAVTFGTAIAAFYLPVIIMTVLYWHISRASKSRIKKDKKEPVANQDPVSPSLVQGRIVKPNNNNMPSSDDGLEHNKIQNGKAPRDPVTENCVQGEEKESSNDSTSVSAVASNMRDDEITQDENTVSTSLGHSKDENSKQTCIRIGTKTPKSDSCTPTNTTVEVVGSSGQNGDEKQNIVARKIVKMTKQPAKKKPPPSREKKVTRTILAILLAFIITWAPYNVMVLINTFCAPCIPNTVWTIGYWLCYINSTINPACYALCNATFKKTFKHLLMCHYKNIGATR
# protocolDescription: Blockade of agonist-mediated inhibition of cAMP accumulation
# Type: cell-based
# conditionSummary: CHO-K1 cells expressing the hM2 receptor; read-out: Ki value for blockade of oxotremorine-inhibition of forskolin-mediated cAMP accumulation
measuredAttribute: Ki

IN: Fill in the blank: the reported Ki of CN(CCN1CCC(OC(=O)Nc2ccccc2-c2ccccc2)CC1)C(=O)CCCCCNCCc1ccc(O)cc1 [Example 1] is ____.
OUT: < 10 nM
